TARGET ENTITY: T1, Human IL2Rγ extracellular domain expressed with a C-terminal myc-myc-hexahistidine tag (human)
T1 construct: also called hIL-2Rg-MMH; hIL-2RG-MMH
T1 chain: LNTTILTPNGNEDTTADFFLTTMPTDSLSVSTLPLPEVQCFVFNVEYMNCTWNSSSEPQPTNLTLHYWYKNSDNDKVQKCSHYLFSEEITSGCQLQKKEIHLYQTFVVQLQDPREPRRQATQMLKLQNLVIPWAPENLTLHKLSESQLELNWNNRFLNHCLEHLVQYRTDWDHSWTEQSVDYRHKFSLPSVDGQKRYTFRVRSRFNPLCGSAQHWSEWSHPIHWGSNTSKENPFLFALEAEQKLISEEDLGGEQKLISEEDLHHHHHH
PROCEDURE TEXT: SPR Biacore 4000, mAb captured by anti-hFc, HBS-ET, 25C
Classify: Met when t1/2 is strictly less than 40 min; Not met when t1/2 is not.

{"BINDER": "H4H13541P (antibody, human IgG4 S228P, kappa, V domains shown, anti-IL2Rγ monoclonal antibody expressed with human IgG4 Fc) VH: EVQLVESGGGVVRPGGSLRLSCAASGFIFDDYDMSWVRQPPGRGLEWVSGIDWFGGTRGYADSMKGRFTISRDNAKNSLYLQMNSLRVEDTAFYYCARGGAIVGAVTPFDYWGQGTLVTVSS VL: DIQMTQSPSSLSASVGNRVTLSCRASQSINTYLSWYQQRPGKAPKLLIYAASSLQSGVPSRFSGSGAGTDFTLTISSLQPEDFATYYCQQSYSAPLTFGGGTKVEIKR", "ASSIGNED LABEL": "Not met"}
{"BINDER": "H4H12890P (antibody, human IgG4 S228P, kappa, V domains shown, anti-IL2Rγ monoclonal antibody expressed with human IgG4 Fc) VH: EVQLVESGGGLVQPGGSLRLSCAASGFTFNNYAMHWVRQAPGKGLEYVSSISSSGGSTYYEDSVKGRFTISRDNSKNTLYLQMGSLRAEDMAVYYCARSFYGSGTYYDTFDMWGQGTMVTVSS VL: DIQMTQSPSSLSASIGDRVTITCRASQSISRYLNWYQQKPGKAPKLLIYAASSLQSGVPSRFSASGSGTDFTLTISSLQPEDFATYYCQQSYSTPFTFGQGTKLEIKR", "ASSIGNED LABEL": "Met"}
{"BINDER": "H4H12884P (antibody, human IgG4 S228P, kappa, V domains shown, anti-IL2Rγ monoclonal antibody expressed with human IgG4 Fc) VH: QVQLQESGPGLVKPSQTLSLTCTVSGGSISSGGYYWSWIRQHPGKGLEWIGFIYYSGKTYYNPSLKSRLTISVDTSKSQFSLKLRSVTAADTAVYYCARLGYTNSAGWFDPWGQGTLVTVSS VL: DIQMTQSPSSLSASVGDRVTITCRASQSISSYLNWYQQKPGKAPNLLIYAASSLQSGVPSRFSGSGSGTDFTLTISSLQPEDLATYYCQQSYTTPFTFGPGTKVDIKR", "ASSIGNED LABEL": "Met"}
{"BINDER": "H4H12886P (antibody, human IgG4 S228P, kappa, V domains shown, anti-IL2Rγ monoclonal antibody expressed with human IgG4 Fc) VH: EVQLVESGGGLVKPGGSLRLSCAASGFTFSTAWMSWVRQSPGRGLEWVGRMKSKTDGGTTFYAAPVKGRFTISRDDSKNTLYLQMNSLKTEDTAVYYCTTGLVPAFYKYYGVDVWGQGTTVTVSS VL: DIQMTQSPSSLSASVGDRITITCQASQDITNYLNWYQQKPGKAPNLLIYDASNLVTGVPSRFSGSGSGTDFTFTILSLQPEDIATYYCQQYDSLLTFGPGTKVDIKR", "ASSIGNED LABEL": "Not met"}
{"BINDER": "H4H12899P (antibody, human IgG4 S228P, kappa, V domains shown, anti-IL2Rγ monoclonal antibody expressed with human IgG4 Fc) VH: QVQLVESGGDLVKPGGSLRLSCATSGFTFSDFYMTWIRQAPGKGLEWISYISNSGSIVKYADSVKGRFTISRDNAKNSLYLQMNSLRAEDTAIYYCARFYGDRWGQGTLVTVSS VL: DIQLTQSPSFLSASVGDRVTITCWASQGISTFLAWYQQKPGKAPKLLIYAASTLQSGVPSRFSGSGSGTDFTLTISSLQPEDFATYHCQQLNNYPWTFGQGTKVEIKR", "ASSIGNED LABEL": "Met"}
{"BINDER": "H4H13538P (antibody, human IgG4 S228P, kappa, V domains shown, anti-IL2Rγ monoclonal antibody expressed with human IgG4 Fc) VH: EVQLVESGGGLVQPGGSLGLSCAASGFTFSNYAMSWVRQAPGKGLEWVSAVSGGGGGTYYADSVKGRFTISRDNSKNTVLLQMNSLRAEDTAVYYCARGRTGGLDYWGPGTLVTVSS VL: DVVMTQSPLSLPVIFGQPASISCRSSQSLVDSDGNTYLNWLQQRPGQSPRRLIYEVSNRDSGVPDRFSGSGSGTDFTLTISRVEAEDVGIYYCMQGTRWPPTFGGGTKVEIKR", "ASSIGNED LABEL": "Not met"}
{"BINDER": "H4H12871P (antibody, human IgG4 S228P, kappa, V domains shown, anti-IL2Rγ monoclonal antibody expressed with human IgG4 Fc; also called REGN9434) VH: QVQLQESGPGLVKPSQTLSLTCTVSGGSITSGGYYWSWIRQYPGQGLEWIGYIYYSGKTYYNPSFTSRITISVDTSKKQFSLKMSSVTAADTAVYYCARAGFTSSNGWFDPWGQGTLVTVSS VL: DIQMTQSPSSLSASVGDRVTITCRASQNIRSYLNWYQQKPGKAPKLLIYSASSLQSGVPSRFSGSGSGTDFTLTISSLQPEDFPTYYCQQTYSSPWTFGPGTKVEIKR", "ASSIGNED LABEL": "Met"}
{"BINDER": "H4H12874P (antibody, human IgG4 S228P, kappa, V domains shown, anti-IL2Rγ monoclonal antibody expressed with human IgG4 Fc) VH: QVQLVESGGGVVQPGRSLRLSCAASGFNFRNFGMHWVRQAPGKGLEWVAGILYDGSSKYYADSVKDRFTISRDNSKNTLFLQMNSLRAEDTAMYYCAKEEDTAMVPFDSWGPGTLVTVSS VL: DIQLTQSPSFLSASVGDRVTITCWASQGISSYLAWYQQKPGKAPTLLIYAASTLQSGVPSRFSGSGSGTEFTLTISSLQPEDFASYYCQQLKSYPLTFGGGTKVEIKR", "ASSIGNED LABEL": "Met"}
{"BINDER": "H4H12863P (antibody, human IgG4 S228P, kappa, V domains shown, anti-IL2Rγ monoclonal antibody expressed with human IgG4 Fc) VH: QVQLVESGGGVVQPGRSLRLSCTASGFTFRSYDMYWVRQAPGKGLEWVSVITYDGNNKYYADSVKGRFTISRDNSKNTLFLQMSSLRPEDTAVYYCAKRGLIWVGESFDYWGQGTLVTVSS VL: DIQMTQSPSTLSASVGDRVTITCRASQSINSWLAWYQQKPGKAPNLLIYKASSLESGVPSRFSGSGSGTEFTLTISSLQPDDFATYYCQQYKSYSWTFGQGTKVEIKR", "ASSIGNED LABEL": "Met"}
{"BINDER": "H4H12900P (antibody, human IgG4 S228P, kappa, V domains shown, anti-IL2Rγ monoclonal antibody expressed with human IgG4 Fc) VH: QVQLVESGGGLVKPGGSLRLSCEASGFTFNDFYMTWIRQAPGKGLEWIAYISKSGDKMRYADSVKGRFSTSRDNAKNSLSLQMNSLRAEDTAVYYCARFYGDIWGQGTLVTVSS VL: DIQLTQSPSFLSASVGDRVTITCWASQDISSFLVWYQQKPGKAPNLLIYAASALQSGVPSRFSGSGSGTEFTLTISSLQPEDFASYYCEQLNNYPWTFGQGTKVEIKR", "ASSIGNED LABEL": "Met"}
{"BINDER": "H4H12889P (antibody, human IgG4 S228P, kappa, V domains shown, anti-IL2Rγ monoclonal antibody expressed with human IgG4 Fc; also called REGN7257) VH: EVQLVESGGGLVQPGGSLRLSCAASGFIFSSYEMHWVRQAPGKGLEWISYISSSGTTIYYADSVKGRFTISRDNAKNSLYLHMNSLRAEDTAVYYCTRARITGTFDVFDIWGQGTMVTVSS VL: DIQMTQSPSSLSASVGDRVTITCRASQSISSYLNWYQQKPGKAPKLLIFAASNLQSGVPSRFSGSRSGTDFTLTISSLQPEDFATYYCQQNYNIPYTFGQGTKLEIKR", "ASSIGNED LABEL": "Met"}

Each recorded value in this set is attributed to patent US20200247894A1.
